Values were extracted from patent US9637451B2.

Molecular target: human MT2 receptor (Homo sapiens)
Construct: expressed in transfected cells
Assay: Activation of human MT2 receptor in receptor-expressing cells, intracellular Ca2+ by FLIPR
Type: cell-based
Conditions: maximum reaction by ramelteon taken as 100%
Experimental Endpoint: Emax (%)

> print(dat)
                           molecular.string                experimental.target  reported
1  CC(=O)NCC(C)(C)c1c[nH]c2cc(F)c(OCCOc3ccn(C)n3)cc12  human MT2 receptor (Homo sapiens)       114

1 = COc1ccc(OCCOc2cc3c(CCNC(C)=O)c(C)[nH]c3cc2F)cn1
2 = CCC(=O)NCCc1c(C)[nH]c2ccc(OCCOc3ccn(C)n3)cc12
Request: Hi there! Just curious which has the higher Emax between 1 and 2 . Bench note: the answer is the label of the chosen record.
Result: 2

* * *

Target: human MT1 receptor (Homo sapiens, UniProt P48039)
Sequence (P48039 whole entry): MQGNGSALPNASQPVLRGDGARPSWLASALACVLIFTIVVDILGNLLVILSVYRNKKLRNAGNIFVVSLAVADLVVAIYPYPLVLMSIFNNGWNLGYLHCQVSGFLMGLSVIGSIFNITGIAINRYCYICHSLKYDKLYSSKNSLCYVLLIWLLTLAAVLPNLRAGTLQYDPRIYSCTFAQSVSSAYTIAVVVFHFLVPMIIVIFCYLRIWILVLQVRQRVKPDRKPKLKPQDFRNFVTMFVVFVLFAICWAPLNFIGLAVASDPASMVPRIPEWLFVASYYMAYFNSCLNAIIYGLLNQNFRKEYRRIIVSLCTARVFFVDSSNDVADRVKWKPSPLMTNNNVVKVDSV
Assay: Activation of human MT1 receptor in receptor-expressing cells, intracellular Ca2+ by FLIPR
Details: HEK293EBNA1 cells stably expressing human MT1 and Gq/i chimeric G protein; Ca2+ FLIPR
pEC50: −log10 of the molar value.
Experimental Endpoint: pEC50

> print(dat)
                                   compound                       experimental.target  experimental.endpoint  reported
1  CC(=O)NCCc1c(C)[nH]c2cc(F)c(OCCOc3ccn(C)n3)cc12 [Example 13]  human MT1 receptor (Homo sapiens, UniProt P48039)                  pEC50      8.37

A = CCC(=O)NCCc1c[nH]c2cc(F)c(OCCOc3ccc(OC)nc3)cc12 [Example 46]
B = CC(=O)NCCc1c(C)[nH]c2ccc(OCCOc3ccn(C)n3)cc12 [Example 7]
C = COC(=O)NCCOc1ccc2[nH]c(C)c(CCNC(C)=O)c2c1 [Example 17]
Request: Put the compounds in ascending order of pEC50. Quick reminder: the answer is the labels in the order asked.
Result: B, C, A
(B: 7.74, C: 8.23, A: 8.47)

A = CC(=O)NCCc1c[nH]c2ccc(OCCn3ccc(C(F)(F)F)n3)cc12 [Example 4]
B = CNC(=O)NCCc1c(C)[nH]c2cc(F)c(OCCOc3ccn(C)n3)cc12 [Example 47]
Request: I'd appreciate it if you could identify which of A and B has the greater pEC50. # reply format: chosen label
Result: B
(B: 8.01, A: 7.74)

a = CNC(=O)NCCc1c[nH]c2ccc(OCCc3nc(C)sc3C)cc12 [Example 21]
b = CC(=O)NCCc1c[nH]c2ccc(OCCOc3ccccn3)cc12 [Example 64]
c = COc1ncc(OCCOc2cc3c(CCNC(C)=O)c[nH]c3cc2F)cc1F [Example 33]
Request: Ranking field: pEC50; order: falling. Output the labels ranked as instructed.
Result: b, c, a
(b: 8.80, c: 8.37, a: 8.15)

A = CCC(=O)NCCc1c(C)[nH]c2ccc(OCCn3ccc(C)n3)cc12 [Example 15]
B = CCC(=O)NCCc1c(C)[nH]c2ccc(OCCOc3ccn(C)n3)cc12 [Example 1]
Request: // compare measured pEC50, left A , right B , return larger Label of pick, please.
Result: B
(B: 8.41, A: 8.08)

a = CC(=O)NCCc1c[nH]c2ccc(OCCOc3cncc(Br)c3)cc12 [Example 49]
b = CNC(=O)NCCc1c[nH]c2ccc(OCCOc3cccc(C)n3)cc12 [Example 58]
Request: For the pair a and b , which entry has the numerically smaller recorded pEC50? Could you answer with the label of the item you picked?
Result: a
(a: 8.25, b: 8.92)

P = CC(=O)NCCc1c[nH]c2ccc(OCCOc3ccnc(C)c3)cc12 [Example 59]
Q = CC(=O)NC[C@H](C)c1c[nH]c2cc(F)c(OCCOc3ccn(C)n3)cc12 [Example 37]
R = COc1ncc(OCCOc2ccc3[nH]cc(CCNC(C)=O)c3c2)cc1F [Example 32]
Request: Ascending sort, pEC50. Give the labels in the order requested.
Result: P, R, Q
(P: 8.18, R: 8.47, Q: 8.68)

P = CNC(=O)NCCc1c(C)[nH]c2ccc(OCCn3ccc(C)n3)cc12 [Example 30]
Q = CCC(=O)NCCc1c(C)[nH]c2cc(F)c(OCCOc3ccn(C)n3)cc12 [Example 45]
Request: // select label with min value of measured pEC50 from [ P , Q ] Reply briefly: the label of your chosen item.
Result: P

* * *

Test: Brain-to-plasma concentration ratio in rat after intravenous administration
Type: in vivo
Details: brain and plasma, 15 minutes after intravenous administration
Experimental Endpoint: Kp at 0.25 h

Worked examples follow.
> print(dat)
                           molecular.string  reported
1  CC(=O)NC[C@H](C)c1c[nH]c2cc(Cl)c(OCCOc3ccn(C)n3)cc12      0.02
2  CC(=O)NCCc1c(C)[nH]c2ccc(OCCOc3ccn(C)n3)cc12      0.03
3  CC(=O)NC[C@H](C)c1c[nH]c2cc(F)c(OCCOc3ccn(C)n3)cc12      0.01
4  CC(=O)NCCc1c[nH]c2ccc(OCCn3ccc(C(F)(F)F)n3)cc12      0.29
5  CC(=O)NCCc1c(C)[nH]c2ccc(OCCOc3ccnc(C)c3)cc12      0.03
6  CC(=O)NCCc1c[nH]c2cc(F)c(OCCOc3ccn(C)n3)cc12      0.09
7  CNC(=O)NCCc1c[nH]c2ccc(OCCOc3ccc(OC)nc3)cc12      0.03
8  COc1ccc(OCCOc2ccc3[nH]cc(CCNC(C)=O)c3c2)cn1     0.089

P = CNC(=O)NCCc1c(C)[nH]c2ccc(OCCOc3ccnc(C)c3)cc12
Q = CCC(=O)NCCc1c[nH]c2ccc(OCCOc3ccn(C)n3)cc12
Request: Please let me know which one, P or Q , has a lower measured Kp at 0.25 h value. State the label of the item chosen.
Result: P

* * *

Target: human MT2 receptor (Homo sapiens)
Construct: expressed in transfected cells
Assay: Activation of human MT2 receptor in receptor-expressing cells, intracellular Ca2+ by FLIPR
Format: cell-based
Details: maximum reaction by ramelteon taken as 100%
Experimental Endpoint: Emax (%)

Take a look at these entries with their results.
> print(dat)
                           molecular.string  reported
1  CC(=O)NCCc1c[nH]c2ccc(OCCOc3ccnc(Cl)c3)cc12       108
2  COc1ncc(OCCOc2ccc3[nH]cc(CCNC(C)=O)c3c2)cc1F        66
3  CCC(=O)NCCc1c[nH]c2cc(F)c(OCCOc3ccn(C)n3)cc12       104
4  CC(=O)NCCc1c[nH]c2ccc(OCCOc3cncc(F)c3)cc12       114
5  CCC(=O)NCCc1c[nH]c2cc(F)c(OCCOc3ccc(OC)nc3)cc12        76

1 = CNC(=O)NCCc1c[nH]c2ccc(OCCOc3ccc(OC)nc3)cc12
2 = CC(=O)NCCc1c[nH]c2ccc(OCCOc3ccnc(C)c3)cc12
Request: Consider entries 1 and 2 . Which has the numerically lower Emax? # reply format: chosen label
Result: 1
(1: 68%, 2: 99%)

* * *

Assay: CSF-to-plasma unbound concentration ratio in rat after intravenous administration
Format: in vivo
Conditions: CSF and plasma (unbound), iv, 10 minutes after the intravenous administration
Experimental Endpoint: Kp uu at 10 min

Request: Entry CCC(=O)NCC[C@@H]1CCc2ccc3c(c21)CCO3 [Ramelteon, ramelteon, reference compound] : reported Kp uu at 10 min = ?
Result: > 1

* * *

Molecular target: human MT2 receptor (Homo sapiens, UniProt P49286)
Sequence (P49286 whole entry): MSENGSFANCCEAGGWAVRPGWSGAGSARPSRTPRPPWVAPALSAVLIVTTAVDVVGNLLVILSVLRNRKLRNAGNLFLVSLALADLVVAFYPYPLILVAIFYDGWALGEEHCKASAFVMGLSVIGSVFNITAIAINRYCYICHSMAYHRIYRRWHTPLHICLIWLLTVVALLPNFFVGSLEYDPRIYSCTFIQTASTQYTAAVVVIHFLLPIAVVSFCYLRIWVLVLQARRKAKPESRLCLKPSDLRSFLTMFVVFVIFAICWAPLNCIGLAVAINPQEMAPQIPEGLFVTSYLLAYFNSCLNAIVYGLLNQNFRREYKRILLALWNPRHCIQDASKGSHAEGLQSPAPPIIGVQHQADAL
Test: Activation of human MT2 receptor in receptor-expressing cells, intracellular Ca2+ by FLIPR
Details: HEK293 cells stably expressing human MT2 and Gq/i chimeric G protein; Ca2+ FLIPR
pEC50: −log10 of the molar value.
Experimental Endpoint: pEC50

> print(dat)
                                   compound  experimental.endpoint  reported
1  CNC(=O)NCCc1c(C)[nH]c2ccc(OCCOc3ccnc(C)c3)cc12                  pEC50      7.49

A = CCCC(=O)NCCc1c[nH]c2ccc(OCCOc3ccn(C)n3)cc12
B = CC(=O)NCCc1c[nH]c2ccc(OCCOc3nccc(C(F)(F)F)n3)cc12
Request: Compare the recorded pEC50 of A and B ; state which is larger. Indicate which entry you chose by stating its label.
Result: B
(B: 7.80, A: 7.59)

a = COc1ccc(OCCOc2ccc3[nH]cc(CCNC(C)=O)c3c2)cn1
b = CC(=O)NCC(C)c1c[nH]c2ccc(OCCOc3ccn(C)n3)cc12 (stereo not shown)
Request: I'd appreciate it if you could identify which of a and b has the greater pEC50. Your choice should be expressed through its label.
Result: b
(b: 8.00, a: 6.82)
